Field: GI50. Provide a value for each of the molecules that follow.
# Test system: SNB-78
# assayProcedure: NCI tumour cell line growth inhibition, 48 h
The source made the active and inactive calls. Cut-off read from the data, not from the text of the source: active = GI50 up to about 1.1 µM and inactive = higher.

CCCCN1C(=O)C2c3[nH]c4ccccc4c3C3CCCCC3C2C1=O.CCCCN1C(=O)C2c3[nH]c4ccccc4c3[C@@H]3CCCCC3C2C1=O (stereo not given) :: 15 µM (inactive)

Count: 4. Required value per item: GI50.
1. COc1ccc2oc(-c3cc4cc(OC)ccc4o3)cc2c1
2. Cc1ccc(C(=O)NC(C)(C)C)cc1/N=N/N(C)C
3. O=C(Nc1ccc(C2=NCCN2)cc1)c1cncc(C(=O)Nc2ccc(C3=NCCN3)cc2)c1
4. CCCCC(C(=O)CCC(=O)Nc1ccc(Cl)cc1)C(=O)C(C)C (stereo not given)

Resp:
> 100 µM (inactive)
> 100 µM (inactive)
> 100 µM (inactive)
> 100 µM (inactive)
